- target.of.assay: Estrogen receptor (Homo sapiens) (UniProt P03372)
- Sequence (P03372 whole entry, looked up): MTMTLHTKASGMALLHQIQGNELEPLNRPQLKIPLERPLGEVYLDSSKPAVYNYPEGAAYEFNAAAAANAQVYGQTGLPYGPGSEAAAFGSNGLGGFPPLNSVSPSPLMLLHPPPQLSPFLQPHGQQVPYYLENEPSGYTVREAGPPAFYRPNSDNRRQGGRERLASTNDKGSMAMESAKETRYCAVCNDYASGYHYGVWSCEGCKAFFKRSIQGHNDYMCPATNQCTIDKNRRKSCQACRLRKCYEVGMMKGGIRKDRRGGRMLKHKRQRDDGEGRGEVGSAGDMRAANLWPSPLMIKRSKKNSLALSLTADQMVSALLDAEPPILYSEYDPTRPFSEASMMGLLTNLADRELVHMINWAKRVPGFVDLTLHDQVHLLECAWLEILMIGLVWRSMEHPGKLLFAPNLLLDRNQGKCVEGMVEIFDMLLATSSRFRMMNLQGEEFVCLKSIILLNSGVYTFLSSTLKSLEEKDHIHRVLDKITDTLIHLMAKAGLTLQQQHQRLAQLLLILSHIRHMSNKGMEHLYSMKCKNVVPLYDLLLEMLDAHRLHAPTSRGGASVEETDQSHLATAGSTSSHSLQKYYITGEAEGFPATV
- assay.protocol: qHTS assay for small molecule antagonists of estrogen receptor alpha signaling (AID 588513)
- assay.context: ER-alpha-UAS-bla HEK293, beta-lactamase ratio, antagonist mode; series mostly up to 76.9 µM
Active and inactive are the calls of the source. Calls come from the whole dose curve; as a rule, active = well fitted curve in the direction sought with a large enough effect in the signal ratio, with a control signal flat (not every such curve was filed as active); inconclusive = small, poorly fitted or top-dose-only effect, or effect the other way, or a change in a side signal; inactive = no such curve, though single readings can be large or run the other way; the % refers to the signal ratio.
Outcomes you can answer with include only these: active, inactive

Reference set (8 entries):
| compound | target.of.assay | category |
| --- | --- | --- |
| O=C(O)c1ccccc1C(c1ccc(O)cc1)c1ccc(O)cc1 | Estrogen receptor (Homo sapiens) (UniProt P03372) | inactive |
| c1ccccc1 | Estrogen receptor (Homo sapiens) (UniProt P03372) | inactive |
| Nc1ccc(Cl)cc1Cl | Estrogen receptor (Homo sapiens) (UniProt P03372) | inactive |
| COCC(=O)O | Estrogen receptor (Homo sapiens) (UniProt P03372) | inactive |
| OCCNCCO | Estrogen receptor (Homo sapiens) (UniProt P03372) | inactive |
| C=CC(=O)OCCOCCOCCOCCOC(=O)C=C | Estrogen receptor (Homo sapiens) (UniProt P03372) | active |
| Cc1ccc(N)c([N+](=O)[O-])c1 | Estrogen receptor (Homo sapiens) (UniProt P03372) | inactive |
| Clc1cc(Cl)c(Cl)cc1Cl | Estrogen receptor (Homo sapiens) (UniProt P03372) | inactive |

In the following, a different compound is considered.
## Input Hi, do you know how COc1ccc(/C=C/c2cc(OC)cc(=O)o2)cc1 came out in this test?
## Output inactive

====

Entries and their activity
- target.of.assay: Nicotinamide N-methyltransferase (Homo sapiens) (UniProt P40261)
- Sequence (P40261 whole entry, looked up): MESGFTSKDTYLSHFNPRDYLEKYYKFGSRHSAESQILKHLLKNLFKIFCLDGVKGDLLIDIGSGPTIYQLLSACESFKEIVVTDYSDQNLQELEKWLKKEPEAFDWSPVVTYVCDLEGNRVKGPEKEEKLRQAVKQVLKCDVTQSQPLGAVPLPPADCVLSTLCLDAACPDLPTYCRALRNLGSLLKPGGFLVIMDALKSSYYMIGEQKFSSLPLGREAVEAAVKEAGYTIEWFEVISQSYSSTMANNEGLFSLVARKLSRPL
- assay.protocol: Confirmatory Screen for Target Class Profiling of Small Molecule Inhibitors of Methyltransferases (AID 1745852)
- assay.context: MTase-Glo luminescence, SAH detection, recombinant enzyme; measured here: NNMT max response; stronger effect = lower value
Respond with the bare value in %.

Below are worked cases with known answers.
| compound | activity / % |
| --- | --- |
| COCCCN1C(=O)c2cc3c(OC)ccc(OC)c3n2CC1(C)C(=O)NC1CCCCC1 (stereo not drawn) | -20.2 |
| COCCNc1cc(-c2noc([C@@H]3CCCN3CC(C)C)n2)ccn1 | -4.35 |
| CN1CCC(N2C[C@@H]3C[C@H]2C(=O)N(CC2CC2)c2ccccc2O3)CC1 | -1.59 |
| COc1ccc(CCNc2nc3c(-c4cccc(F)c4)nnn3c3ccccc23)cc1OC | -5.65 |
| COc1ccc(C(=O)N(Cc2ccco2)S(=O)(=O)c2ccc3c(c2)n(C)c(=O)n3C)cc1 | -20 |

## Input Lab note: Nicotinamide N-methyltransferase (Homo sapiens) (UniProt P40261) assay, enter activity for CN1CCN(c2ncnc3sc4c(c23)CCNC4)CC1 here
## Output -71.2

## Input Lab note: Nicotinamide N-methyltransferase (Homo sapiens) (UniProt P40261) assay, enter activity for Cc1ccc2nc(CN(C)C(=O)C3CCC(=O)N(C4CCCCCC4)C3)[nH]c2c1 (stereo not drawn) here
## Output -9.1

## Input Lab note: Nicotinamide N-methyltransferase (Homo sapiens) (UniProt P40261) assay, enter activity for Cc1ccc2c(c1)c(=O)[nH]c1c(C(=O)NCc3ccc4c(c3)OCO4)sc(=S)n12 here
## Output -60.7

====

Entries and their Potency
- target.of.assay: Cytochrome P450 2C19 (Homo sapiens)
- assay.protocol: qHTS for inhibitors of CYP2C19 against the NCATS DSHEA and TCM libraries (AID 1919974);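 note: luminescence from luciferin released by CYP2C19 oxidation of a pro-luciferin substrate; potency is the fitted concentration of half-maximal effect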
- assay.context: CYP2C19 enzyme inhibition, luminescence qHTS; series mostly up to 34.1 µM
- Description: Assay Development and Screening Technology Laboratory (ADST) National Center for Advancing Translational Sciences (NCATS), Rockville, MD National Institute of Health (NIH), Bethesda, Maryland Dietary Supplements and Natural Products have minor oversight of their safety and efficacy. […] Overall, we highlight four significant bioactivity profiles (measured by p-values) as examples of this prediction. […] 9; Read; Luminescence; ViewLux plate reader. […]
Inconclusive results are not listed. Activity calls are given as the source filed them. Calls follow the shape of the dose curve; as a rule, active = well fitted inhibition curve with a large enough effect; inconclusive = small, poorly fitted or top-dose-only effect; inactive = no such curve, though single readings can be large or run the other way.

| smiles.repr | target.of.assay | Potency |
| --- | --- | --- |
| O=c1cc(-c2ccc(O)c(O)c2)oc2cc(O[C@@H]3O[C@@H](CO)[C@@H](O)[C@@H](O)[C@H]3O)cc(O)c12 | Cytochrome P450 2C19 (Homo sapiens) | 3.55 µM (active) |

Now turn to the next compound.
## Input # return recorded Potency for entry Oc1cc(O)c2c(c1)O[C@@H](c1cc(O)c(O)c(O)c1)[C@H](O)C2
## Output 3.55 µM (active)

Source listed as PubChem BioAssay (NCATS).
